test_name: Cytotoxicity test (CCK-8) in RAW264.7 cell
Type: cell-based, mouse
run_conditions: mouse, RAW264.7 macrophage cells; at less than 80 μM
endpoint: viability at 24 h

1. CO[C@@H]1C[C@H]2[C@H](OC(=O)c3ccc(O)cc3)[C@@H]3O[C@]3(CO)[C@H]2[C@H](O[C@@H]2O[C@H](CO)[C@@H](O)C(O)[C@H]2O)O1 (stereo partly shown) [KS-513]: > 95%

* * *

test_name: Cytotoxicity test (CCK-8) in RAW264.7 cell
Format: cell-based, mouse
run_conditions: mouse, RAW264.7 macrophage cells; 40 μM, 24 hours, vs negative control 0.2% DMSO; read-out: RAW264.7 cell viability (%, mean ± variation)
endpoint: viability at 24 h, 40 µM

1) CO[C@@H]1C[C@H]2[C@H](OC(=O)c3ccc(O)cc3)[C@@H]3O[C@]3(CO)[C@H]2[C@H](O[C@@H]2O[C@H](CO)[C@@H](O)C(O)[C@H]2O)O1 (stereo partly shown) [KS-513]: 97.2%
